- method description: A549 lung cancer cell viability effects, profiling panel, resazurin fluorescence, 24 h, PK04 Diversity Set (AID 1171); note: test concentration not given here
- run conditions: higher = more signal, called active from +8 up or from −8 down
property name: z-score
// return just the number, without any unit appended

Examples with answers:
{"compound": "CC1(C)O[C@H]2OC([C@H](O)CON3C(=O)c4ccccc4C3=O)[C@H](O)[C@H]2O1 (some centres undefined)", "recorded number": 0.368}
{"compound": "CC(CCN1CCc2nc(-c3ccccc3)c(-c3ccccc3)cc2C1)=NOC(C)CN1CCCc2nc(C)c(C)cc21 (centres undefined)", "recorded number": 0.289}
{"compound": "CC(C)(C)N1C(=O)[C@H]2[C@H]3[C@H](O)[C@H](O)CC(=NOC[C@@H](O)COCc4ccco4)[C@@H]3CC[C@H]2C1=O", "recorded number": -0.0978}

Shifting focus to the compound that follows.
IN: Return reported z-score; argument: C#CCCCON=C1[C@H]2CCn3c(=O)n(Cc4cc5c(cc4Cl)OCO5)c(=O)n3[C@H]2[C@H](O)[C@@H]2O[C@H]12
OUT: -0.188

Entry source: PubChem BioAssay
